Reported log10 IC50 at 72 h by item:
- assay-remarks: Cytotoxicity against human GES1 cells assessed as inhibition of cell growth incubated for 72 hrs by MTT assay
- Type: toxicity, cell-based
Lab note - IC50 at 72 h converted to log10 from values in µM.

Cc1cc(N2CC[C@@H](C)[C@@H](N(C)c3ncnc4[nH]ccc34)C2)n2nc(SCc3ccc(C(F)(F)F)cc3)nc2n1 : 1.24
O=c1[nH]cc(F)c(=O)[nH]1 [FLUOROURACIL] : 0.37
Cc1cc(N2CC[C@@H](C)[C@@H](N(C)c3ncnc4[nH]ccc34)C2)n2ncnc2n1 : 1.76

// log10 IC50 at 72 h lookup, compound = "Cc1ccc(CSc2nc3nc(C)cc(N4CC[C@@H](C)[C@@H](N(C)c5ncnc6[nH]ccc56)C4)n3n2)cc1" , result: 1.92

// log10 IC50 at 72 h lookup, compound = "Cc1cc(N2CC[C@@H](C)[C@@H](N(C)c3ncnc4[nH]ccc34)C2)n2nc(SCc3ccccc3)nc2n1" , result: 1.83

// log10 IC50 at 72 h lookup, compound = "Cc1cc(N2CC[C@@H](C)[C@@H](N(C)c3ncnc4[nH]ccc34)C2)n2nc(SCCc3ccccc3)nc2n1" , result: 1.82

====

Reported IC50 at 72 h by item:
- assay-remarks: Cytotoxicity against human GES1 cells assessed as inhibition of cell growth incubated for 72 hrs by MTT assay
- Type: toxicity, cell-based
Return type: number; implicit unit µM.

The cases that follow already have their IC50 at 72 h on record.
Cc1cc(N2CC[C@@H](C)[C@@H](N(C)c3ncnc4[nH]ccc34)C2)n2nc(SCc3cc(Cl)ccc3Cl)nc2n1 : 87.5
Cc1cc(N2CC[C@@H](C)[C@@H](N(C)c3ncnc4[nH]ccc34)C2)n2nc(SCc3ccc([N+](=O)[O-])cc3)nc2n1 : 36.6
Cc1cc(N2CC[C@@H](C)[C@@H](N(C)c3ncnc4[nH]ccc34)C2)n2nc(SCc3ccc(Br)cc3)nc2n1 : 55.6

// IC50 at 72 h lookup, compound = "Cc1cc(N2CC[C@@H](C)[C@@H](N(C)c3ncnc4[nH]ccc34)C2)n2nc(SCc3nc4ccccc4[nH]3)nc2n1" , result: 40.2

====

Reported IC50 at 72 h by item:
- assay-remarks: Cytotoxicity against human GES1 cells assessed as inhibition of cell growth incubated for 72 hrs by MTT assay
- Assay type: toxicity, cell-based

The cases that follow already have their IC50 at 72 h on record.
CCCSc1nc2nc(C)cc(N3CC[C@@H](C)[C@@H](N(C)c4ncnc5[nH]ccc45)C3)n2n1 : 67.1 µM
CCCCCc1c(C)nc2nc(SCc3ccc(Cl)cc3)nn2c1N1CC[C@@H](C)[C@@H](N(C)c2ncnc3[nH]ccc23)C1 : > 100 µM
Cc1cc(N2CC[C@@H](C)[C@@H](N(C)c3ncnc4[nH]ccc34)C2)n2nc(SCc3ccccc3Br)nc2n1 : > 100 µM

Proceeding to the next compound to report its IC50 at 72 h.
// IC50 at 72 h lookup, compound = "Cc1cc(N2CC[C@@H](C)[C@@H](N(C)c3ncnc4[nH]ccc34)C2)n2nc(SCc3csc4ccc(Cl)cc34)nc2n1" , result: > 100 µM

====

- assay-remarks: Cytotoxicity against human GES1 cells assessed as inhibition of cell growth incubated for 72 hrs by MTT assay
- Assay type: toxicity, cell-based
measured-parameter: IC50 at 72 h (µM)
Return type: number; implicit unit µM.

Cc1cc(N2CC[C@@H](C)[C@@H](N(C)c3ncnc4[nH]ccc34)C2)n2nc(SCC3CCCCC3)nc2n1 : 98.2
Cc1nc2nc(SCc3ccc(Cl)cc3)nn2c(N2CC[C@@H](C)[C@@H](N(C)c3ncnc4[nH]ccc34)C2)c1C : 99.2
Cc1cc(N2CC[C@@H](C)[C@@H](N(C)c3ncnc4[nH]ccc34)C2)n2nc(SCC3CC3)nc2n1 : 27.9

// IC50 at 72 h lookup, molecule = "Cc1cc(N2CC[C@@H](C)[C@@H](N(C)c3ncnc4[nH]ccc34)C2)n2nc(SCc3ccc(F)cc3)nc2n1" , result: 12.3

Numbers sourced from ChEMBL document CHEMBL5244249.
